# test system: T1, EGFR Fc (human, UniProt P00533 25-645)
# T1 construct: also called EGFR-hFc; recombinant human EGFR-Fc
# assay procedure: ELISA, EGFR Fc coated, VHH at 0.4 nM
assay metric: OD450

Field: example entries. Status: answers known.
# binder, assay metric, quantitative readout
records = [
    ("pgEG-SX20 (VHH, not shown: small tags and cut ends) VHH: QVQLVESGGGLVQAGGSLRLSCAGARSAFSIKPMTWYRQAPGKERELVAYFNSGGSTNYADSVKGRFTISRDNAKNTMYLQMNNLKPEDTAVYYCNAIPPLGSWGQGTQVTVSS", "OD450", 2.67),
    ("pgEG-SX6 (VHH, not shown: small tags and cut ends) VHH: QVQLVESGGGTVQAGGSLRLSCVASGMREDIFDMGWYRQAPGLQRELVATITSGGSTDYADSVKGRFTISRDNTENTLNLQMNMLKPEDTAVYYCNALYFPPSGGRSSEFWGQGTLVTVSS", "OD450", 1.16),
]

[a] pgEG-SX39 (VHH, not shown: small tags and cut ends) VHH: QVQVAESGGGLVQAGESLRLSCTASGSISTINAVRWYRQTPGKQREFVAYISTDGGTDYADPVKGRFTISRDNAKNTWFLQMNSLKPEDTGVYMCNVVVTPYAYWGQGTQVTVSS
[b] pgEG-SX40 (VHH, not shown: small tags and cut ends) VHH: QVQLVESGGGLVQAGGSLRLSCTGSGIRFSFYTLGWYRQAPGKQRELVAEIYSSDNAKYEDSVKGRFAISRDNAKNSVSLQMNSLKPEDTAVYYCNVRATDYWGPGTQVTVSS
Exercise: Hi, I'm comparing two records. Which one has the lower OD450, a or b ? When you have decided, please share the label of that item.
Solution: a
